Listing of recorded ΔTm by entry.
system: Quadruplex DNA; experiment: Stabilization of c-MYC G4 quadruplex DNA Pu22 (unknown origin) assessed as change in melting temperature at 2 uM by CD spectroscopy; format: nucleic-acid assay
Numeric only. Scale: °C

Some solved cases for reference:
MOLECULE	ΔTm [°C]
CCn1c2ccccc2c2cc(-c3nc(-c4ccc(N5CCN(C)CC5)cc4)c(-c4ccc(N5CCN(C)CC5)cc4)n3-c3ccc(OCCOCCO[C@@H]4O[C@H](COC(C)=O)[C@@H](OC(C)=O)[C@H](OC(C)=O)[C@H]4OC(C)=O)cc3)ccc21 (single isomer, unassigned)	14.2
CCn1c2ccccc2c2cc(-c3nc(-c4ccc(N5CCN(C)CC5)cc4)c(-c4ccc(N5CCN(C)CC5)cc4)n3-c3ccc(OCCCOC4(C)O[C@H]5O[C@H](COC(C)=O)[C@@H](OC(C)=O)[C@H](OC(C)=O)[C@H]5O4)cc3)ccc21 (single isomer, unassigned)	16
CCn1c2ccccc2c2cc(-c3nc(-c4ccc(N5CCN(C)CC5)cc4)c(-c4ccc(N5CCN(C)CC5)cc4)n3-c3ccc(O)cc3)ccc21	14.5

Query molecule follows.
In: What ΔTm value was documented for this molecule, CCn1c2ccccc2c2cc(-c3nc(-c4ccc(N5CCN(C)CC5)cc4)c(-c4ccc(N5CCN(C)CC5)cc4)n3-c3ccc(O[C@@H]4O[C@H](COC(C)=O)[C@@H](OC(C)=O)[C@H](OC(C)=O)[C@H]4OC(C)=O)cc3)ccc21 (single isomer, unassigned) ?
Out: 10.7

The values you see were collected from ChEMBL document CHEMBL5104180.
